Reference source: patent US10632125B2

Molecular target: UniProt:P36639
Assay: MTH1 enzymatic assay (malachite green, coupled to pyrophosphatase)
Assay type: biochemical
Conditions: dGTP 100 μM, MTH1 6 nM; 96- or 384-well format; read-out: IC50
Each item that follows carries a reported IC50.
property: IC50

INSERT INTO results (given_smiles, experimental_result) VALUES
  ('CNc1cc(-c2ccc(Cl)c(Cl)c2)nc(N)n1', '< 200 nM'),
  ('Cc1cc2cc(CNc3cc(-c4cccc(C)c4C)nc(N)n3)ccc2[nH]1', '< 200 nM'),
  ('Cc1cccc(-c2cc(NCc3ccc4[nH]ncc4c3)nc(N)n2)c1C', '< 200 nM'),
  ('Cc1cccc(-c2cc(NCc3ccc(N4CCN(C)CC4)cc3)nc(N)n2)c1C', '< 200 nM'),
  ('Cc1cccc(-c2cc(NCCNc3cc(C(N)=O)ccn3)nc(N)n2)c1C', '< 200 nM'),
  ('CNc1cc(-c2cc(Cl)c(C(F)(F)F)cc2C)nc(N)n1', '< 200 nM'),
  ('CNc1cc(-c2ccc(OCc3ccccc3)cc2C)nc(N)n1', '< 200 nM'),
  ('Cc1nc(CCNc2cc(-c3cccc(Cl)c3C)nc(N)n2)n[nH]1', '< 200 nM'),
  ('Cc1c(Cl)cccc1-c1cc(NCCc2ccc(Cl)cc2)nc(N)n1', '< 200 nM');

----------
Molecular target: MTH1 (Homo sapiens)
Assay: MTH1 enzymatic assay (malachite green, coupled to pyrophosphatase)
Format: biochemical
Settings: dGTP 100 μM, MTH1 6 nM; 96- or 384-well format; read-out: IC50
property: IC50

INSERT INTO assay_data (compound, experimental_result) VALUES
  ('Cc1cccc(-c2cc(NC3CCCCC3)nc(N)n2)c1C', '< 0.2 µM'),
  ('Cc1cccc(-c2cc(NCCn3ccccc3=O)nc(N)n2)c1C', '< 0.2 µM'),
  ('Cc1cccc(-c2cc(NCCNc3nc(Br)ns3)nc(N)n2)c1C', '< 0.2 µM'),
  ('Nc1nc2c(c(-c3cccc(Cl)c3Cl)n1)CCCN2', '< 0.2 µM'),
  ('CNc1cc(-c2cccc(C)c2C)nc(N)n1', '< 0.2 µM'),
  ('C=C(C)CNc1cc(-c2cccc(Cl)c2C)nc(N)n1', '< 0.2 µM'),
  ('CC(C)(C)C(=O)NCCCCNc1cc(-c2cccc(Cl)c2Cl)nc(N)n1', '< 0.2 µM'),
  ('CNc1cc(-c2ccoc2C)nc(N)n1', '< 0.2 µM'),
  ('Cc1ccc(NCCNc2cc(-c3cccc(C)c3C)nc(N)n2)cc1F', '< 0.2 µM'),
  ('CNc1cc(-c2ccc3c(c2)OCO3)nc(N)n1', '< 0.2 µM'),
  ('Cc1cc(CSCCNc2cc(-c3cccc(Cl)c3C)nc(N)n2)no1', '< 0.2 µM'),
  ('C=CCCNc1cc(-c2cccc(Cl)c2C)nc(N)n1', '< 0.2 µM'),
  ('C=CCNc1cc(-c2ccc(Cl)cc2)nc(N)n1', '< 0.2 µM'),
  ('CNc1cc(-c2cn(S(=O)(=O)c3ccccc3)c3ncccc23)nc(N)n1', '< 0.2 µM'),
  ('Cc1cccc(-c2cc(NCC(C)c3ccccc3)nc(N)n2)c1C (stereo not drawn)', '< 0.2 µM'),
  ('Cc1cccc(-c2cc(NC3CCCC3)nc(N)n2)c1C', '< 0.2 µM'),
  ('Cc1ccc(S(=O)(=O)n2cc(-c3cc(NC4CC4)nc(N)n3)c3ccccc32)cc1', '< 0.2 µM'),
  ('Cc1c(Cl)cccc1-c1cc(NCCc2cnccn2)nc(N)n1', '< 0.2 µM'),
  ('Nc1nc(NC2CCOCC2)cc(-c2ccccc2)n1', '< 0.2 µM'),
  ('CNc1cc(-c2ccc(-c3ccccc3)cc2F)nc(N)n1', '< 0.2 µM'),
  ('Cc1cc(C[S+]([O-])CCNc2cc(-c3cccc(Cl)c3C)nc(N)n2)no1 (stereo not drawn)', '2 to 10 µM'),
  ('Cc1c(NC(=O)c2ccc(Cl)cc2O)cccc1-c1cc(NCCc2ccc(S(C)(=O)=O)cc2)nc(N)n1', '< 0.2 µM'),
  ('Cc1c(Cl)cccc1-c1cc(NCCc2ccc(C#N)cc2)nc(N)n1', '< 0.2 µM'),
  ('Nc1nc(NC2CCC2)cc(-c2ccc(Cl)cc2)n1', '< 0.2 µM'),
  ('Cc1c(Cl)cccc1-c1cc(NCCC2=CCCCC2)nc(N)n1', '< 0.2 µM'),
  ('CC(=O)NCCCCNc1cc(-c2cccc(Cl)c2Cl)nc(N)n1', '< 0.2 µM'),
  ('CNc1cc(-c2cc(C)cs2)nc(N)n1', '< 0.2 µM');
